assay: Solubility of ceramide 3 derivatives in emollients (visual inspection, maximum concentration before cloudiness); assay type: physicochemical; conditions: wallnut oil, organic solvent or mixture
Measured solubility accompanies every entry in the list below.
MEASURED PARAMETER: solubility (µg/mL)

{"COMPOUND": "CCCCCCCCCCCCCCCCCC(=O)N[C@@H](CO)[C@H](O)[C@H](O)CCCCCCCCCCCCCC [Ceramide III, N-stearoylphytosphingosine, reference compound]", "MEASURED VALUE": 50}
{"COMPOUND": "CCCCCCCC/C=C\\CCCCCCCC(=O)N[C@@H](CO)[C@H](O)[C@H](O)CCCCCCCCCCCCCC [Ceramide IIIB, N-oleoylphytosphingosine]", "MEASURED VALUE": 200}
